// data source = patent US10988477B2

Molecular target: GCN2 kinase (Homo sapiens, UniProt Q9P2K8)
Assay: GCN2 enzyme inhibition assay (Transcreener ADP2 fluorescence polarization)
Format: biochemical
Settings: Enzyme activity for compounds of Formula IV; Ki(app), 280 μM ATP, 25° C.
Each entry below carries its recorded Ki.

These recorded examples may help you get a feel for the data.
compound="CS(=N)(=O)CC1CCCN(c2ccnc(-c3cnc4cnc(C(F)F)cn34)n2)C1 (single isomer, unassigned) [IV-339]" reported_measurement="100 to 1000 nM"
compound="CS(=O)(=O)NCC1CCN(c2ccnc(-c3cnc4cnc(Br)cn34)n2)C1 (stereo not shown)" reported_measurement="10 to 100 nM"
compound="FC(F)(F)c1cn2c(-c3nccc(N4CCCC(c5nnco5)C4)n3)cnc2cn1 (stereo not shown)" reported_measurement="100 to 1000 nM"

Recall the recorded Ki for CSCC1CCN(c2ccnc(-c3cnc4cnc(C(F)(F)F)cn34)n2)C1 (stereo not shown) with GCN2 kinase (Homo sapiens, UniProt Q9P2K8) and state it. 10 to 100 nM

---

Molecular target: intracellular GCN2 (phosphorylation of the GCN2 substrate eIF2α) (Homo sapiens)
Sequence (Q9P2K8 whole entry): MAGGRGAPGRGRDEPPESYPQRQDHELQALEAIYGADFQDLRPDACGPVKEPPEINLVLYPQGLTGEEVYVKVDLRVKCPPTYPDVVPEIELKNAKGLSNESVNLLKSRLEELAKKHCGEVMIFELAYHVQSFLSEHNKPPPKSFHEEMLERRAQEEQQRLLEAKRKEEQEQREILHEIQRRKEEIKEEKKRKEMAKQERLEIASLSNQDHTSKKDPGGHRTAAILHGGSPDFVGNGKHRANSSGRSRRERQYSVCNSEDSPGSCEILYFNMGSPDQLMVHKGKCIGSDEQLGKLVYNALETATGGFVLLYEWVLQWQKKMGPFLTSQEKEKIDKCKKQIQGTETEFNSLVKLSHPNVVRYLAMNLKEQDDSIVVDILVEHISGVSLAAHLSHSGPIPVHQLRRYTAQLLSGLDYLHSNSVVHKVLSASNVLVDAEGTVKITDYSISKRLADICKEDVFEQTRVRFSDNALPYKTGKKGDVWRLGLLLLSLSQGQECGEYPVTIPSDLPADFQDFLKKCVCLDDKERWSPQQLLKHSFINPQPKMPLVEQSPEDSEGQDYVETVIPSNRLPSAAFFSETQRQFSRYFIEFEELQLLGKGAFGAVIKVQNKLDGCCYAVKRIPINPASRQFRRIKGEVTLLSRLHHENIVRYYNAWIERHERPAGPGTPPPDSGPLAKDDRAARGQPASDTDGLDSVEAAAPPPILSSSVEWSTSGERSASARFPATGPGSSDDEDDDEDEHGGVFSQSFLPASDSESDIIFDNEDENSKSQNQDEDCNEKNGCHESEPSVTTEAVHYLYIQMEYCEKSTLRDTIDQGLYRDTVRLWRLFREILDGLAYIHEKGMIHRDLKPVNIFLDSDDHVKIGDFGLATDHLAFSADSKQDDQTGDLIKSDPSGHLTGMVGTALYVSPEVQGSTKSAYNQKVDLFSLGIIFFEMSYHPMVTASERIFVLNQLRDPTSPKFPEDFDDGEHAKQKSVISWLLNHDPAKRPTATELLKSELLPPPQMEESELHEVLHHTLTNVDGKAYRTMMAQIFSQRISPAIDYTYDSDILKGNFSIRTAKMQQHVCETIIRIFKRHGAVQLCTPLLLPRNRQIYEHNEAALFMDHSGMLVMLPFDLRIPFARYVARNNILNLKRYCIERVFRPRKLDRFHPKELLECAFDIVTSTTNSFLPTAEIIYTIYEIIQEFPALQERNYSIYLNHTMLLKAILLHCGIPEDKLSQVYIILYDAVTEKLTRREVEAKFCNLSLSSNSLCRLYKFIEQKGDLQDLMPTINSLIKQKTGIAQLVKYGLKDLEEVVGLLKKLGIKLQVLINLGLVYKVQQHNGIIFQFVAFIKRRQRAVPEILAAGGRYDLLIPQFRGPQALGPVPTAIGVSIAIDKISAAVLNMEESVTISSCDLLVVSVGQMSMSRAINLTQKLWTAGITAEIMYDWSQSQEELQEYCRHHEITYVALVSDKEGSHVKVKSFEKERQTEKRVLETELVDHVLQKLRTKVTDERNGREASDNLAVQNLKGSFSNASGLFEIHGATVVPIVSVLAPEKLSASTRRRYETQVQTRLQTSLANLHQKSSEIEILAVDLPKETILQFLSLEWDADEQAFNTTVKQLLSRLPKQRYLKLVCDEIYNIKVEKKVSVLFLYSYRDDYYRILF
Test: GCN2 cellular inhibition assay (AlphaScreen SureFire P-eIF2α Ser51, borrelidin-treated U2OS cells)
Assay type: cell-based
Conditions: compounds of Formula II; biomarker assay, phosphorylated eIF2α Ser51 in borrelidin-treated U2OS cells
Counter-ions that a name gives are not always drawn.
The reader will find reported IC50 values listed item by item below.

compound="CC(O)c1ccc2ncc(-c3cc(N4CCO[C@H](CNS(C)(=O)=O)C4)ncn3)n2n1 (stereo partly drawn) [II-338, trifluoroacetate]" readout=IC50 reported_measurement="> 5 µM"
compound="C[C@H]1[C@@H](CNS(C)(=O)=O)OC(C)(C)CN1c1cc(-c2cnc3ccc(C(F)F)nn23)ncn1 (single isomer, unassigned)" readout=IC50 reported_measurement="< 0.5 µM"

Now turn to the next compound.
Which IC50 is listed for CC1CC(N=S(C)(C)=O)CN(c2cc(-c3cnc4ccc(C(F)(F)F)nn34)ncn2)C1 (stereo not drawn) ? < 0.5 µM

---

Biological target: intracellular GCN2 (phosphorylation of the GCN2 substrate eIF2α) (Homo sapiens)
Assay: GCN2 cellular inhibition assay (AlphaScreen SureFire P-eIF2α Ser51, borrelidin-treated U2OS cells)
Assay type: cell-based
Settings: compounds of Formula II; biomarker assay, phosphorylated eIF2α Ser51 in borrelidin-treated U2OS cells
pIC50: −log10 of the molar value.
Readout: pIC50

// below: answered compounds
compound="CS(=O)(=O)NCC1CCN(c2cc(-c3cnc4ccc(C(F)F)nn34)ncn2)C1 (stereo not shown)" assayed_system="intracellular GCN2 (phosphorylation of the GCN2 substrate eIF2α) (Homo sapiens)" reported_measurement="5.30 to 6.30"
compound="CN(CC1CCCN(c2cc(-c3cnc4ccc(C(F)F)nn34)ncn2)C1)S(C)(=O)=O (stereo not shown)" assayed_system="intracellular GCN2 (phosphorylation of the GCN2 substrate eIF2α) (Homo sapiens)" reported_measurement="5.30 to 6.30"
compound="CC1C(CNS(C)(=O)=O)N(C2CC2)CCN1c1cc(-c2cnc3ccc(C(F)F)nn23)ncn1 (single isomer, unassigned) [II-478]" assayed_system="intracellular GCN2 (phosphorylation of the GCN2 substrate eIF2α) (Homo sapiens)" reported_measurement="5.30 to 6.30"
compound=C[C@H]1CN(c2cc(-c3cnc4ccc(C(F)F)nn34)ncn2)C[C@@H](CNS(C)(=O)=O)C1(F)F assayed_system="intracellular GCN2 (phosphorylation of the GCN2 substrate eIF2α) (Homo sapiens)" reported_measurement="> 6.30"
compound=NC(=O)CCC1CCN(c2cc(-c3cnc4ccc(C(F)F)nn34)ncn2)CC1 assayed_system="intracellular GCN2 (phosphorylation of the GCN2 substrate eIF2α) (Homo sapiens)" reported_measurement="5.30 to 6.30"

As a next step, examine the compound that follows.
Looking for the measured pIC50 of CC(=O)NC1CCN(c2cc(-c3cnc4ccc(-c5cccnc5)nn34)ccn2)CC1 , can you help? < 5.30
